Reference source for all entries: patent US10457655B2

pIC50: recorded values
# study.system: FASN enzyme (Homo sapiens)
# protocol.description: Enzymatic Assay for FASN Inhibitors
# Format: biochemical
pIC50: −log10 of the molar value.

molecule: N#Cc1c[nH]c2ccc(-c3ccc(C(=O)N4CCN(C(=O)C5(O)CC5)CC4)cc3Cl)cc12
study.system: FASN enzyme (Homo sapiens)
pIC50: > 6.30
--
molecule: N#Cc1c[nH]c2ccc(-c3ccc(C(=O)N4CCN(C(=O)C5(O)CC5)CC4)c(Cl)c3)cc12
study.system: FASN enzyme (Homo sapiens)
pIC50: > 6.30
--
molecule: Cc1cc2ccccc2n1-c1ccc(C(=O)N2CCN(C(=O)C3(O)CC3)CC2)c(F)c1
study.system: FASN enzyme (Homo sapiens)
pIC50: > 6.30
--
molecule: O=C(c1ccc(-c2cccc(NS(=O)(=O)C3CC3)c2)cc1)N1CCN(C(=O)C2(O)CC2)CC1
study.system: FASN enzyme (Homo sapiens)
pIC50: > 6.30
--
molecule: COc1ccc2c(c1)CN(c1ccc(C(=O)N3CCN(C(=O)C4(O)CC4)CC3)cc1)CC2
study.system: FASN enzyme (Homo sapiens)
pIC50: > 6.30
--
molecule: O=C(c1ccc(-c2ccc3cnccc3c2)cc1)N1CCN(C(=O)C2CCO2)CC1 (centres unmarked)
study.system: FASN enzyme (Homo sapiens)
pIC50: > 6.30
--
molecule: O=C(c1ccc(-c2cccc(N3CCCC3=O)c2)cc1)N1CCN(C(=O)C2(O)CC2)CC1
study.system: FASN enzyme (Homo sapiens)
pIC50: > 6.30
--
molecule: O=C(c1ccc(-c2ccc3[nH]ccc3c2)cc1)N1CCN(C(=O)C2CCO2)CC1 (centres unmarked)
study.system: FASN enzyme (Homo sapiens)
pIC50: > 6.30
--
molecule: Cc1nn(-c2ccc(C(=O)N3CCN(C(=O)C4(O)CC4)CC3)cc2)c2ccccc12
study.system: FASN enzyme (Homo sapiens)
pIC50: > 6.30
--
molecule: Cc1nn(C)c2ccc(-c3ccc(C(=O)N4CCN(C(=O)C5CCO5)CC4)cc3)cc12 (centres unmarked)
study.system: FASN enzyme (Homo sapiens)
pIC50: > 6.30
--
molecule: O=C(c1ccc(-c2cccc(NS(=O)(=O)CCC(F)(F)F)c2)cc1)N1CCN(C(=O)C2(O)CC2)CC1
study.system: FASN enzyme (Homo sapiens)
pIC50: > 6.30

====

IC50: recorded values
# study.system: FASN enzyme (Homo sapiens, UniProt P49327)
# Sequence (P49327 whole entry): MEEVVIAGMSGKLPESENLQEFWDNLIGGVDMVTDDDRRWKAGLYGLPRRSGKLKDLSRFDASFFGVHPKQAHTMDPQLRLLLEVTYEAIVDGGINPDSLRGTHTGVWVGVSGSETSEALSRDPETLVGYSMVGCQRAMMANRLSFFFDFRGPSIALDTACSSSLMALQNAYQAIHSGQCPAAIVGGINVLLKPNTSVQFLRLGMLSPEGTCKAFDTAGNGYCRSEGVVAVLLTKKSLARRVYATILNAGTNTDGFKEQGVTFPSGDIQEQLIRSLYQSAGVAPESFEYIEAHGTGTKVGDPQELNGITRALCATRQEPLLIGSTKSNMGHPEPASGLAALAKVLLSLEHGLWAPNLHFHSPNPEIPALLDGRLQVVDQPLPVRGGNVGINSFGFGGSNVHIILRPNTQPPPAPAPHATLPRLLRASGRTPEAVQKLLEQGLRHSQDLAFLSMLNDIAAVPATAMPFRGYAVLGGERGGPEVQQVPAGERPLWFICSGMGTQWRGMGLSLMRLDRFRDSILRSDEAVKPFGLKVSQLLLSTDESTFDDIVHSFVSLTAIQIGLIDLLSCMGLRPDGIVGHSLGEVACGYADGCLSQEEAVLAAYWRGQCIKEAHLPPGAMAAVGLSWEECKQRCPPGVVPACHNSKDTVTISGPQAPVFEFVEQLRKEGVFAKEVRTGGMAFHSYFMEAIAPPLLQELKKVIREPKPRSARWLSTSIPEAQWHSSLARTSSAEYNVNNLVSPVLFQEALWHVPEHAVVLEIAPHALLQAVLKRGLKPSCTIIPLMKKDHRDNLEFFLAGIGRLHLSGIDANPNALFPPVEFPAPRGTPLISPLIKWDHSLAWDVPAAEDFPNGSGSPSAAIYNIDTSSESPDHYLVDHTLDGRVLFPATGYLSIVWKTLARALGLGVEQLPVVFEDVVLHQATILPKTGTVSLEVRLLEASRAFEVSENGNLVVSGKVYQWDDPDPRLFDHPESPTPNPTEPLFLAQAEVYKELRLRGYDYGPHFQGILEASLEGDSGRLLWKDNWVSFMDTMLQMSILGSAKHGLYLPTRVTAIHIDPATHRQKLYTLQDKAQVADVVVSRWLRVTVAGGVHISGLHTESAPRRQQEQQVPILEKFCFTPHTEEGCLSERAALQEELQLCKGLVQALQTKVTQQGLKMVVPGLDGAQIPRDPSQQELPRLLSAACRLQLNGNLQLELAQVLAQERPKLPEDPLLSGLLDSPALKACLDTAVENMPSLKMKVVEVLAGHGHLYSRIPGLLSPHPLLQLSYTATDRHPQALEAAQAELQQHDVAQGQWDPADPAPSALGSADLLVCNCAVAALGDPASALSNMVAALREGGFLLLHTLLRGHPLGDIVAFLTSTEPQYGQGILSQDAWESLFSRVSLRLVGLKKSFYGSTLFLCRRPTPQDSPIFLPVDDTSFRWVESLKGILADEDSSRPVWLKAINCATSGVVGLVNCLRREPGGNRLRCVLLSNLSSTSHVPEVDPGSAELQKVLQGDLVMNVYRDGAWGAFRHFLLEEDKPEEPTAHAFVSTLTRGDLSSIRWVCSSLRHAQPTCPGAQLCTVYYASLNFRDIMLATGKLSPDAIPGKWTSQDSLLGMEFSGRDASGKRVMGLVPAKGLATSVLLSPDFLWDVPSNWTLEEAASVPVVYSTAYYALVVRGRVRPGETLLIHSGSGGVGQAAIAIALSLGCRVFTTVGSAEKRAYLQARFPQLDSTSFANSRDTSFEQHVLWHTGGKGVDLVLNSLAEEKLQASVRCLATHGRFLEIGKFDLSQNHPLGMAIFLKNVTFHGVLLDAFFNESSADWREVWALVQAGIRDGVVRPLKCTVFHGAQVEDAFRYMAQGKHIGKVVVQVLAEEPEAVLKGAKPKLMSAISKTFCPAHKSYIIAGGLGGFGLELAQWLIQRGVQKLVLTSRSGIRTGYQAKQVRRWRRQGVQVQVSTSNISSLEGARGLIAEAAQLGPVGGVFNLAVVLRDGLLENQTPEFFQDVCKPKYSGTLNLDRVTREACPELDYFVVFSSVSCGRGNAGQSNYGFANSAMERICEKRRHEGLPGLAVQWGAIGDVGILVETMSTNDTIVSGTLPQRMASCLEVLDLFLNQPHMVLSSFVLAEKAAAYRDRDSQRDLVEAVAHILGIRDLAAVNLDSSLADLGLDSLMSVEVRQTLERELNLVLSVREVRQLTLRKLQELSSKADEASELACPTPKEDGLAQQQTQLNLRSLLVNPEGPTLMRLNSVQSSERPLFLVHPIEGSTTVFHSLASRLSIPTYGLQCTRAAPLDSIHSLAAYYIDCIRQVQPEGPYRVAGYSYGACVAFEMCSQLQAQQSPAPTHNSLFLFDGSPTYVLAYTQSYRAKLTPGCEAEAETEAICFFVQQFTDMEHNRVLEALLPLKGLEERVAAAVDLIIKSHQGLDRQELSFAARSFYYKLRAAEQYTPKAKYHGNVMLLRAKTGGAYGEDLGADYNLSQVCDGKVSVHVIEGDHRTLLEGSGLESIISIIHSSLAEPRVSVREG
# protocol.description: Enzymatic Assay for FASN Inhibitors
# Assay type: biochemical
# study.conditions: FASN enzymatic assay; Table 2-3

smiles.data: O=C(c1ccc(-c2cn3cc(F)ccc3n2)cc1)N1CCN(C(=O)C2(O)CC2)CC1
IC50: ≥ 5 µM
--
smiles.data: O=C(c1ccc(-c2cc(CO)ccc2Cl)cc1)N1CCN(C(=O)C2(O)CC2)CC1
IC50: ≥ 5 µM
--
smiles.data: C[C@H](O)C(=O)N1CCN(C(=O)c2ccc(-c3ccccc3)cc2)CC1
IC50: ≥ 5 µM
--
smiles.data: O=C(c1ccc(Oc2ccccc2)cc1)N1CCN(C(=O)C2(O)CC2)CC1
IC50: ≥ 5 µM
--
smiles.data: O=C(c1ccc(-c2ccc(Cl)cc2F)cc1)N1CCN(C(=O)C2(O)CC2)[C@H](CO)C1
IC50: ≥ 5 µM
--
smiles.data: Cc1ccc(F)cc1-c1ccc(C(=O)N2CCN(C(=O)C3(O)CC3)CC2)cc1
IC50: ≥ 5 µM
--
smiles.data: Cc1nc(-c2ccc3scnc3c2)sc1C(=O)N1CCN(C(=O)C2(O)CC2)CC1
IC50: ≥ 5 µM
--
smiles.data: O=C(c1cccc(Oc2ccccc2)c1)N1CCN(C(=O)C2(O)CC2)CC1
IC50: ≥ 5 µM
--
smiles.data: Cc1ccc(-c2ccc(C(=O)N3CCN(C(=O)C4(O)CC4)CC3)cc2)cc1
IC50: ≥ 5 µM
